The compounds listed here are annotated with their pIC50.
assay: Cytotoxicity against human BGC823 cells by MTT assay; details: BGC-823
pIC50: −log10 of the molar value.
QUANTITY KIND: pIC50

[[record]]
chemical_string = "O[C@@H]1C=C[C@H](O)[C@@]23O[C@@]12C1(Oc2cccc4cccc(c24)O1)[C@@H]1O[C@@H]1[C@@H]3O"
result = "< 5.00"

[[record]]
chemical_string = "Oc1cccc2c1[C@@H](O)[C@H]1O[C@H]1C21Oc2cccc3cccc(c23)O1"
result = "< 5.00"

[[record]]
chemical_string = "O=C1C(Cl)=CC2(Oc3cccc4cccc(c34)O2)[C@]23O[C@]12[C@H](O)CCC3=O"
result = 5.59

[[record]]
chemical_string = "O=C1C[C@@H](O)[C@H](O)[C@@]23O[C@@]12C1(Oc2cccc4cccc(c24)O1)[C@@H]1O[C@@H]1[C@@H]3O"
result = 5.48

[[record]]
chemical_string = "O=C1C=C[C@H](O)[C@@]23O[C@@]12C1(Oc2cccc4cccc(c24)O1)[C@H](O)[C@@H](O)[C@@H]3O"
result = "< 5.00"

[[record]]
chemical_string = "O[C@@H]1[C@@H](O)C2(Oc3cccc4cccc(c34)O2)[C@@]23O[C@@]2([C@@H](O)C=C[C@H]3O)[C@H]1O"
result = "< 5.00"

[[record]]
chemical_string = "O=C1C[C@H](O)[C@H](O)[C@@]23O[C@@]12C1(Oc2cccc4cccc(c24)O1)[C@@H]1O[C@@H]1[C@@H]3O"
result = "< 5.00"

